test: Relaxivity determination (r1p) at 20 MHz, 298K, pH 7; format: physicochemical; settings: 298K, 20 MHz, pH=7; q=1 complexes (Table 6)
Property label: R1p (relaxivity) (mM⁻¹ s⁻¹)

INSERT INTO results (compound, property_label, output_unit, endpoint_value) VALUES
  ('O=C(O)CN1CCN(C(COCc2ccccc2)C(=O)O)CCN(C(COCc2ccccc2)C(=O)O)CCN(C(COCc2ccccc2)C(=O)O)CC1 (centres unmarked)', 'R1p (relaxivity)', 'mM⁻¹ s⁻¹', 7.5),
  ('O=C(O)CN1CCN(CC(=O)O)CCN(C(COCc2ccccc2)C(=O)O)CCN(CC(=O)O)CC1 (centres unmarked)', 'R1p (relaxivity)', 'mM⁻¹ s⁻¹', 5.5),
  ('O=C(O)CN1CCN(C(COCc2ccccc2)C(=O)O)CCN(CC(=O)O)CCN(C(COCc2ccccc2)C(=O)O)CC1 (centres unmarked)', 'R1p (relaxivity)', 'mM⁻¹ s⁻¹', 6.5),
  ('O=C(O)CN(CCN(CC(=O)O)CC(=O)O)CCN(CC(=O)O)CC(=O)O', 'R1p (relaxivity)', 'mM⁻¹ s⁻¹', 4.7),
  ('O=C(O)CN1CCN(CC(=O)O)CCN(CC(=O)O)CCN(CC(=O)O)CC1', 'R1p (relaxivity)', 'mM⁻¹ s⁻¹', 4.7);
